Recorded values, source PubChem BioAssay AID1996.

- measurement-context: buffer; pH 7.4; 200.0 µM
test-readout: solubility kinetic

Worked examples, 5 molecules total:
[
  {
    "molecule": "CN1C(=O)C(CC(=O)O)S/C1=N\\N=C\\c1ccc(O)cc1O (stereo unspecified)",
    "solubility kinetic": "> 48.5 µg/mL"
  },
  {
    "molecule": "CC(C)NCc1cc(Br)ccc1OCc1ccccc1.Cl",
    "solubility kinetic": "> 55.6 µg/mL"
  },
  {
    "molecule": "O=C(c1ccc(Cl)cc1)C1CCN(Cc2ccccc2)CC1",
    "solubility kinetic": "> 47.1 µg/mL"
  },
  {
    "molecule": "CCCCc1c(C)nc(N2CCCC2)[nH]c1=O",
    "solubility kinetic": "> 35.3 µg/mL"
  },
  {
    "molecule": "CC1CN(C(=O)CS(=O)(=O)Cc2ccccc2)CC(C)O1 (stereo unspecified)",
    "solubility kinetic": "> 46.7 µg/mL"
  }
]

Q: May I ask what solubility kinetic has been recorded for `O=C(Nc1cc(Cl)ccc1-n1cncn1)C1CC1` ?
Result: > 39.4 µg/mL

###

- measurement-context: buffer; pH 7.4; 200.0 µM
test-readout: solubility kinetic

Worked examples follow.
[
  {
    "compound": "C=CCC1(Nc2ccccc2)CC(C)N(C)CC1C.O=C(O)C(=O)O (stereo unspecified)",
    "solubility kinetic": "> 52.3 µg/mL"
  },
  {
    "compound": "Fc1ccc(-c2csc(-c3ccccn3)n2)cc1F",
    "solubility kinetic": "< 0.3 µg/mL"
  },
  {
    "compound": "COc1ccc(-c2nc(=S)c3c(n2Cc2cccnc2)CC(C)(C)OC3)cc1",
    "solubility kinetic": "> 59 µg/mL"
  },
  {
    "compound": "COc1cccc(-c2cc(C(=O)NC3CCCCC3)no2)c1",
    "solubility kinetic": "< 0.3 µg/mL"
  },
  {
    "compound": "O=c1[nH]c(SCc2cccc(F)c2)nc2ccccc12",
    "solubility kinetic": "< 0.3 µg/mL"
  }
]

Q: Entry under review: `O=C(NCC(=O)N1CCCCCCC1)c1ccco1` . Reported solubility kinetic?
Result: > 39.6 µg/mL

###

solubility kinetic by entry:
- measurement-context: buffer; pH 7.4; 200.0 µM

[
  {
    "molecule": "CC(=O)N1CCN(S(=O)(=O)c2cccc(C(=O)NCc3ccc(F)cc3)c2)CC1",
    "test-readout": "solubility kinetic",
    "observed-result": "> 62.9 µg/mL"
  }
]

Q: GET /values?readout=solubility kinetic&item= `Cc1ccc(N2CC(=O)N(CC(=O)O)C2=O)cc1`
Result: > 37.2 µg/mL

Q: # solubility kinetic lookup, item `COc1cccc(NC(=O)c2ccccc2C(F)(F)F)c1`
Result: > 44.3 µg/mL

Q: Form field: reported solubility kinetic of `Cc1c(-c2ccc(Br)cc2)[n+](=O)c2c(n1[O-])CCCC2`
Result: > 50.3 µg/mL

Q: Item CC(CCc1ccccc1)NCC(O)c1cccc([N+](=O)[O-])c1.Cl (stereo not drawn) has what recorded solubility kinetic?
Result: > 52.6 µg/mL

Q: Which solubility kinetic is listed for `Cn1cc(S(=O)(=O)N2CCCC2)cc1C(=O)O` ?
Result: > 38.7 µg/mL

Q: So what's the measured solubility kinetic for this one? O=C(NC1CC1)C(Cl)c1ccccc1 (stereo not drawn)
Result: > 31.5 µg/mL

Q: Would you mind telling me what solubility kinetic value was observed for `Cc1cc(C)nc(Nc2nc(-c3ccccc3)cs2)n1` ?
Result: < 0.2 µg/mL

Q: // solubility kinetic lookup, key: `O=C(COC(=O)COc1ccccc1F)NCc1ccco1`
Result: > 46.1 µg/mL

Q: # query: solubility kinetic of entry `COc1ccc(-c2cc(C(=O)Nc3cccc(Cl)c3)no2)cc1`
Result: < 0.4 µg/mL

Q: Which solubility kinetic reading was recorded for the molecule `C=CCNC(=S)Nc1ccc2cn[nH]c2c1` ?
Result: > 34.8 µg/mL

Q: What solubility kinetic value was documented for this molecule, `Cc1ccc(C(=O)NC2(O)C(=O)c3ccccc3C2=O)cc1C` ?
Result: > 46.4 µg/mL

Q: // solubility kinetic lookup, key: CC1CC2c3cccc(C(=O)O)c3C(=O)N2c2ccc(Cl)cc21 (stereo not drawn)
Result: > 49.2 µg/mL
